- Tested on: human lymphoma cell line RAMOS cells
- assayOverview: Cell growth inhibition test using RAMOS cell, ATP assay (CellTiter-Glo)
- Format: cell-based
- conditionParameters: Homo sapiens, Ramos, 72 h, cultured 3 days, 50% growth inhibition concentration
readoutName: GI50 (nM)

Worked cases, answers included:
State its GI50 for this compound: Cc1cc2cc(Cl)cc(C(=O)NCC(C)(C)CC(=O)Nc3c(CCCN(C)C)n(C)n(-c4ccccc4)c3=O)c2o1 200

Input CCOc1ccc(Cl)cc1C(=O)NCC(C)(C)CC(=O)Nc1c(CC(C)(C)N)n(C)n(-c2ccccc2)c1=O , output reported GI50. 170

Give the reported GI50 for this compound. CCOc1ccc(Cl)cc1C(=O)NCC(C)(C)CC(=O)Nc1c(CCN(C)CC(F)(F)F)n(C)n(-c2ccccc2)c1=O 240

Give the value of GI50 reported for the following: CCOc1cc(F)c(Cl)cc1C(=O)NCC(C)(C)CC(=O)Nc1c(C)n(C)n(-c2ccccc2)c1=O 560

Report measured GI50; entry is COCOc1ccc(Cl)cc1C(=O)NCC(C)(C)CC(=O)Nc1c(CCN(C)C)n(C)n(-c2ccccc2)c1=O 200

I: CCOc1ccc(Cl)cc1C(=O)NCC(C)(C)CC(=O)Nc1c(C(C)CN(C)C)n(C)n(-c2ccccc2)c1=O (stereo not shown)
II: CCOc1ncc(Cl)cc1C(=O)NCC(C)(C)CC(=O)Nc1c(C(C)NC)n(C)n(-c2ccccc2)c1=O (single isomer, unassigned) [Example 85]
Compare I and II and name the one whose reported GI50 is smaller. Let me know the label of the one you choose. I
(I: 160 nM, II: 300 nM)
